Measured Ki by item
# target of assay: rat VR1 (Rattus norvegicus)
# Construct: expressed in transfected cells
# Sequence (O35433 whole entry): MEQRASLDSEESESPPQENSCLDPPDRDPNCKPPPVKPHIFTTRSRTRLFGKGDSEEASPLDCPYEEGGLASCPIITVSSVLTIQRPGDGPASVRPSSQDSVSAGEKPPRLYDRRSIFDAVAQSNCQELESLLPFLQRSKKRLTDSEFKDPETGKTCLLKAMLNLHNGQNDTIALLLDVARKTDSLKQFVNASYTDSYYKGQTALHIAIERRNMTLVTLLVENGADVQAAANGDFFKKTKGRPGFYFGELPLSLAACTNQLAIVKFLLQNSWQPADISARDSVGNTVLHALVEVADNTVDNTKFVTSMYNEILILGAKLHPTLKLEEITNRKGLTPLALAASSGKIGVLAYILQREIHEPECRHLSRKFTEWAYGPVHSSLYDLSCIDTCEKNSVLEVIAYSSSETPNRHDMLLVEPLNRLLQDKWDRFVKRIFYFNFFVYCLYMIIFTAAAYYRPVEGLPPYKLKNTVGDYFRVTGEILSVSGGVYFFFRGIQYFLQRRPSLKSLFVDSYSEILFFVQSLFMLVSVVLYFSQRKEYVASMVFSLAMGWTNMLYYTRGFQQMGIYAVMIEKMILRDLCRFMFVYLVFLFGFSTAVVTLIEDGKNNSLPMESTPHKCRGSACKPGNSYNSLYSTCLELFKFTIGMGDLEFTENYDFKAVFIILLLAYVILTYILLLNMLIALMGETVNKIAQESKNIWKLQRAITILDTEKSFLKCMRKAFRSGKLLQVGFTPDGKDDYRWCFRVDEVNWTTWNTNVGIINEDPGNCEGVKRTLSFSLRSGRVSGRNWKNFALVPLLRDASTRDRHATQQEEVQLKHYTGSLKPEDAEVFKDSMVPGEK
# assay notes: [3H]resiniferatoxin (RTX) competition binding assay, VR1-transfected CHO cells
Could you give me the number in nM? Just the number is fine.

Below are worked cases with known answers.
                                   molecule  unit_info  test_result
0  CC(NC(=S)NCc1ccc(C(C)(C)C)cc1)c1ccc(NS(C)(=O)=O)c(C(=O)O)c1 (stereo not drawn) [15-5]         nM         2770
1  C[C@H](NC(=S)NC[C@@H](COC(=O)C(C)(C)C)Cc1ccccc1)c1ccc(NS(C)(=O)=O)cc1 [18-4]         nM          706
2  C[C@H](C(=O)NC[C@H](COC(=O)C(C)(C)C)Cc1ccc(C(C)(C)C)cc1)c1ccc(NS(C)(=O)=O)c(F)c1 [6-9]         nM         4.24
3  COC(=O)c1cc(C(C)NC(=S)NCc2ccc(C(C)(C)C)cc2)ccc1NS(C)(=O)=O (stereo not drawn) [15-4]         nM          163

Quick one: Ki of CC(NC(=O)NCc1ccc(C(C)(C)C)cc1)c1ccc(NS(C)(=O)=O)c(F)c1 (stereo not drawn) [23-2] ?
447

What value of measured Ki is listed for C[C@@H](NC(=S)N[C@@H](COC(=O)C(C)(C)C)Cc1ccccc1)c1ccc(NS(C)(=O)=O)cc1 [19-13] ?
420

Please give the measured Ki for this molecule: C[C@@H](NC(=S)NC[C@H](COC(=O)C(C)(C)C)Cc1ccccc1)c1ccc(NS(C)(=O)=O)cc1 [18-1]
22.7

Requested field: Ki. Item: C[C@H](C(=O)NCc1ccc(C(C)(C)C)cc1)c1ccc(NS(C)(=O)=O)c(F)c1 [3-5]
43.9

Would you kindly share the measured Ki for Cc1ccc(CCCNC(=O)C(C)(C)c2ccc(NS(C)(=O)=O)c(F)c2)cc1C [9-5] ?
960

Please report the recorded Ki for Cc1ccc(C(C)CC(=O)NC(C)c2ccc(NS(C)(=O)=O)c(F)c2)cc1C (stereo not drawn) [24-8] .
3530

Name the reported Ki value associated with the molecule CC(NC(=O)NCc1ccc(C(C)(C)C)cc1)c1ccc(NS(C)(=O)=O)cc1 (stereo not drawn) [23-1]
1190

Could you share which Ki value was measured for C[C@@H](NC(=S)NC[C@H](COC(=O)C(C)(C)C)Cc1ccc(C(C)(C)C)cc1)c1ccc(NS(C)(=O)=O)cc1 [18-11] ?
15.7

Returns the measured Ki for the input molecule. Input: C[C@H](C(=O)NC[C@@H](COC(=O)C(C)(C)C)Cc1ccc(C(C)(C)C)cc1)c1ccc(NS(C)(=O)=O)c(F)c1 [6-10]
6.58

Using the record for CC(NC(=S)NCC(COC(=O)C(C)(C)C)Cc1ccc(C(C)(C)C)cc1)c1ccc(NS(C)(=O)=O)c(F)c1 (stereo not drawn) [18-14] , report its Ki.
37

Item Cc1ccc(CC(CNC(=O)C(C)(C)c2ccc(NS(C)(=O)=O)c(F)c2)COC(=O)C(C)(C)C)cc1C (stereo not drawn) [9-2] has what recorded Ki?
276

If you can, please state the reported Ki value of CC(C(=O)NCc1ccc(Cl)c(Cl)c1)c1ccc(NS(C)(=O)=O)c(Cl)c1 (stereo not drawn) [4-5] .
289

Any idea what its Ki is? The molecule is CC(C(=O)NCCC(c1ccccc1)c1ccccc1)c1ccc(NS(C)(=O)=O)c(F)c1 (stereo not drawn) [4-24]
128

So what does the record say about Ki for C[C@@H](NC(=S)NC[C@@H](COC(=O)C(C)(C)C)Cc1ccccc1)c1ccc(NS(C)(=O)=O)cc1 [18-2] ?
19.4

Entry Cc1ccc(C=CC(=O)NC(C)c2ccc(NS(C)(=O)=O)c(F)c2)cc1C (stereo not drawn) [24-5] has what Ki?
2520

All figures here come from patent US8642657B2.
